# protocolDescription: qHTS assay to identify small molecule antagonists of the estrogen related receptor signaling pathway with the pleiotropic PPARgamma coactivator (PGC) from Tox21 10K library (AID 1224841); note: actives are mostly falling curves and most rising ones were filed inactive; nearly all actives have a fitted effect of over 50% in size
# conditionsUsed: PGC/ERR reporter cell line, ONE-Glo luciferase, 18 h; series mostly up to 92.4 µM
Records with an inconclusive call do not appear. Activity calls are given as the source filed them. The rule behind the calls is not given here.

| molecule | outcome |
| --- | --- |
| OC[C@H]1O[C@@H](n2cnc3c(=S)nc[nH]c32)[C@H](O)[C@@H]1O | inactive |
| CC1CC(OC(=O)C(O)c2ccccc2)CC(C)(C)N1C (stereo not drawn) | inactive |
| OCCN1CCN(CCCN2c3ccccc3Sc3ccc(Cl)cc32)CC1 | inactive |

---

# protocolDescription: qHTS RealTime-Glo MT Cell Viability Assay in HEK293 cells - 32 hour (AID 1224868); note: nearly all actives have a fitted effect of over 50% in size
# conditionsUsed: RealTime-Glo luminescence; series mostly up to 76.8 µM
Records with an inconclusive call do not appear. Active and inactive are the calls of the source. Calls come from the whole dose curve; as a rule, active = well fitted cell-killing curve with a large enough effect in the repeat runs; inconclusive = weak or mixed curves, or effect the other way; inactive = flat fitted curve, though single readings scatter.
Return exactly one item of active, inactive

Use the examples below as a reference point.
| compound | assignedLabel |
| --- | --- |
| C=CC(C)(CCC=C(C)C)OC(=O)CC(C)C (stereo not given) | inactive |
| C=C/C(C)=C/C/C=C(\C)CCC=C(C)C | inactive |
| C[C@@H](O)[C@H]1C(=O)N2C(C(=O)O)=C([C@H]3CCCO3)S[C@H]12 | inactive |
| C1COC1 | inactive |
| Oc1cccc(O)c1O | inactive |
| NC1[C@H]2CN(c3nc4c(cc3F)c(=O)c(C(=O)O)cn4-c3ccc(F)cc3F)C[C@@H]12 (stereo not given in full) | inactive |
| CC(=O)NC1(c2cccc(F)c2)CCN(CC[C@@]2(c3ccc(Cl)c(Cl)c3)CN(c3ccccc3)C(=O)CO2)CC1 | active |
| CCCCCCCCCCC(=O)O | inactive |

Fill in: this test's call for C=CCc1ccccc1OCC(O)CNC(C)C (stereo not given) is ___
inactive

Do the same for `OCCN1CCN(CCCN2c3ccccc3Sc3ccc(Cl)cc32)CC1` please
active

// next record `Cc1cccc(N(C)C(=S)Oc2ccc3c(c2)CCC3)c1`
inactive

Please answer likewise for `N#CCc1ccc(Cl)cc1Cl`
inactive

Could you do the same for `CC1=Nc2ccc3ccccc3c2C1(C)C` , please?
inactive

# iterate: CC1CC(C)C(=O)C1=O (stereo not given)
active

// repeat for `CCc1ccccc1` and report
inactive

---

# measuredTarget: Cytochrome P450 2C9 (Homo sapiens) (UniProt P11712)
# Sequence (P11712 whole entry, looked up): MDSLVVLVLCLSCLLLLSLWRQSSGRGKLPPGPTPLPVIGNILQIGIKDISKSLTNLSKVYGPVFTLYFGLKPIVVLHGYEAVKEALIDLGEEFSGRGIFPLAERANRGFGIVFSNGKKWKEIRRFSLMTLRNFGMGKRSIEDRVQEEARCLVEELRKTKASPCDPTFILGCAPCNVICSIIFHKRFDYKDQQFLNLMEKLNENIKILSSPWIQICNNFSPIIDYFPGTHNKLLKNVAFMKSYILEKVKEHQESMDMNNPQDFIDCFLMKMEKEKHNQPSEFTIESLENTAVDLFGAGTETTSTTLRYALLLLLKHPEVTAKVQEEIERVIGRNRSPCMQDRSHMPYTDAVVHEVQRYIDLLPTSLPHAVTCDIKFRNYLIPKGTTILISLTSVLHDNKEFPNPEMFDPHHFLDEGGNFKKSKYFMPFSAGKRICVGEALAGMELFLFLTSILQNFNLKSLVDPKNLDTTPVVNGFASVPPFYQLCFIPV
# protocolDescription: Cytochrome P450 Family 2 Subfamily C Member 9 (CYP2C9) small molecule antagonists: luciferase reporter qHTS assay (AID 1671198); note: nearly all actives have a fitted effect of over 50% in size
# conditionsUsed: P450-Glo CYP2C9 enzyme assay, luciferin luminescence; series mostly up to 115 µM
# From the text: U.S. Tox21 Program National Center for Advancing Translational Sciences [NCATS] U.S. Environmental Protection Agency [EPA] National Institutes of Environmental Health Sciences [NIEHS] National Toxicology Program [NTP] U.S. Food and Drug Administration [FDA] […] The luciferin products formed are detected with a luciferin detection reagent, and the amount of light produced is proportional to CYP activity. […]
Inconclusive results are not listed. The source made the active and inactive calls. Calls come from the whole dose curve; as a rule, active = well fitted inhibition curve with a large enough effect in the repeat runs; inconclusive = weak or mixed curves; inactive = no such curve, though single readings can be large or run the other way.
Choose the fitting class; nothing outside active, inactive is accepted.

Consider the following illustrative entries.
| molecule | measuredTarget | assignedLabel |
| --- | --- | --- |
| CNC(=O)c1cnn(-c2nc(N)c3ncn([C@@H]4O[C@H](CO)[C@@H](O)[C@H]4O)c3n2)c1 | Cytochrome P450 2C9 (Homo sapiens) (UniProt P11712) | inactive |
| O=C1Cc2cc(Cl)ccc2N1 | Cytochrome P450 2C9 (Homo sapiens) (UniProt P11712) | active |
| Clc1ccc(Nc2nnc(Cc3ccncc3)c3ccccc23)cc1 | Cytochrome P450 2C9 (Homo sapiens) (UniProt P11712) | active |
| CCC(C)(C)OC | Cytochrome P450 2C9 (Homo sapiens) (UniProt P11712) | inactive |

# fetch the recorded call for `O=C(CCc1ccc(O)cc1)c1c(O)cc(O)cc1O` here
active

Continue with `CO[C@]1(NC(=O)CSC(F)F)C(=O)N2C(C(=O)O)=C(CSc3nnnn3CCO)CO[C@H]21`
inactive

Same question, `Nc1ccc(N=Nc2ccccc2)c(N)c1` this time
active

Then this molecule: CCC(OCCCOC)OC(C)=O (configuration not stated)
inactive

Check `O=C(OC(=O)c1ccccc1)c1ccccc1` too.
inactive

Try this molecule too: `Nc1ncnc2c1ncn2[C@H]1CC[C@@H](CO)O1`
inactive

Record: `C/C=C\C/C=C/CCCCCCCCOC(C)=O`
active

Repeat for the following molecule: `CC(=O)OCC[N+](C)(C)C`
inactive

# iterate: `O=[N+]([O-])c1ccc(O/N=C/c2cc(Br)c(O)c(Br)c2)c([N+](=O)[O-])c1`
active

Please give the result for `CC(=O)Nc1cc(S(=O)(=O)O)cc2cc(S(=O)(=O)O)c(N=Nc3ccccc3)c(O)c12` too.
active

Same read-out for `CC(=O)c1cc2ccccc2s1` ?
inactive

Now the molecule `O=C(O)CCC(=O)C(=O)O`
inactive

Further, for CC1(CN2CCC(n3c(=O)[nH]c4ccccc43)CC2)OCc2ccccc2-n2cccc21 (configuration not stated) ?
active

Try `Cc1ccccc1S` next.
active

And what about the molecule `CCCCCC#CC(=O)OC` ?
active

Same question for `CC(=O)NC1(c2cccc(F)c2)CCN(CC[C@@]2(c3ccc(Cl)c(Cl)c3)CN(c3ccccc3)C(=O)CO2)CC1` please.
active

---

# protocolDescription: qHTS assay to identify small molecule antagonists of the sonic hedgehog signaling (Shh) pathway (AID 1259369); note: nearly all actives have a fitted effect of over 45% in size
# conditionsUsed: NIH/3T3 Gli1-Luc reporter, Shh antagonist, luminescence 24 h; series mostly up to 92.4 µM
Records with an inconclusive call do not appear. Activity calls are given as the source filed them. Calls follow the shape of the full dose curve.
Respond using exactly one of the listed classes: TRUE for active, FALSE for inactive

Check out these entries, answers already filled in.
| compound | assignedLabel |
| --- | --- |
| CCCCOc1ccc(OCCCN2CCOCC2)cc1 | TRUE |
| CCC=CC#N | FALSE |
| O=C1NCCN1CCO | FALSE |
| Oc1cc2c(cc1O)[C@H]1c3ccc(O)c(O)c3OC[C@@]1(O)C2 | TRUE |

Kindly provide the recorded test outcome for the following compound: `CCOC(=O)c1ccc(OCCN2C[C@H](O)[C@@H](O)[C@H](O)[C@H]2CO)cc1`
FALSE

Please give the result for CCC(C)COC(C)=O (stereo not drawn) too.
FALSE

What about NC1[C@H]2CN(c3nc4c(cc3F)c(=O)c(C(=O)O)cn4-c3ccc(F)cc3F)C[C@@H]12 (stereo partly drawn) ?
TRUE

Follow-up item: `COc1cc(Nc2c(C#N)cnc3cc(OCCCN4CCN(C)CC4)c(OC)cc23)c(Cl)cc1Cl`
TRUE

---

# protocolDescription: qHTS assay to identify small molecule antagonists of the estrogen receptor beta (ER-beta) signaling pathway - cell viability counter screen (AID 1259382);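 note: HEK293T cells carrying ER-beta-UAS-bla reporter stimulated with estradiol; nearly all actives have a fitted effect of over 55% in size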
# conditionsUsed: ER-beta-UAS-bla HEK293T viability, CellTiter-Glo luminescence, 16 h; series mostly up to 92.4 µM
Records with an inconclusive call do not appear. The source made the active and inactive calls. The call rests on the fitted dose curve; in most records, active means well fitted cell-killing curve with a large enough effect in the repeat runs; inconclusive means weak or mixed curves; inactive means flat fitted curve, though single readings scatter.
propertyLabel: outcome

Solved entries (count: 4):
| compound | outcome |
| --- | --- |
| CC(CO)CO | inactive |
| CCCCCCCC/C=C\CCCCCCCCO | inactive |
| NC1[C@H]2CN(c3nc4c(cc3F)c(=O)c(C(=O)O)cn4-c3ccc(F)cc3F)C[C@@H]12 (stereo partly drawn) | inactive |
| C=Cc1ccc(S(=O)(=O)O)cc1 | inactive |

Reported outcome for `COC(=O)C1=C(C)NC(C)=C(C(=O)O[C@@H]2CCCN(Cc3ccccc3)C2)[C@@H]1c1cccc([N+](=O)[O-])c1` : what is it?
inactive

Record: `Cc1ccc(CO)cc1`
inactive

Now give it for `C[C@]1(Cn2ccnn2)[C@H](C(=O)O)N2C(=O)C[C@H]2S1(=O)=O` too.
inactive

Let us now turn to `CN(C(=O)CN(CCO)CC(=O)N(C)C(C)(C)Cc1ccccc1)C(C)(C)Cc1ccccc1`
inactive

---

# protocolDescription: qHTS assay to identify small molecule antagonists of the estrogen receptor alpha (ER-alpha) signaling pathway using the BG1 cell line - cell viability counter screen (AID 743081);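 note: compound given together with 17beta-estradiol as the ER stimulus; nearly all actives have a fitted effect of over 45% in size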
# conditionsUsed: BG1Luc4E2 viability, CellTiter-Fluor, 22 h; series mostly up to 70.3 µM
Results filed as inconclusive are left out. Calls of active or inactive are those of the source. Calls come from the whole dose curve; as a rule, active = well fitted cell-killing curve with a large enough effect in the repeat runs; inconclusive = weak or mixed curves, or effect the other way; inactive = flat fitted curve, though single readings scatter.
I would appreciate it if you answered using one of these outcomes: class 1 for active, class 0 for inactive

Completed entries (count: 2):
| compound | assignedLabel |
| --- | --- |
| CCCC(=O)C(=O)O | class 0 |
| CN1C(=O)OC(C)(C)C1=O | class 0 |

Look up the recorded call for `CCOC(=O)c1ccccc1C(=C1C=C(Br)C(=O)C(Br)=C1)c1cc(Br)c(O)c(Br)c1` in this test.
class 0

Quick one: `Brc1cc2ccccc2c2ccccc12`
class 0

And for `CC(C)(O)c1ccc(CNC(=O)c2cccnc2Oc2ccc3nonc3c2)cc1` ?
class 0

Another compound to look at: `O=C(O)CCc1nc(-c2ccccc2)c(-c2ccccc2)o1`
class 0

Another compound: `Cc1ccc(C(C)(C)O)cc1`
class 0

Same read-out for `CC1=Nc2ccc3ccccc3c2C1(C)C` ?
class 0

Now try `CC(=O)Nc1ccc(C)cc1C` .
class 0

Let us now turn to `O=[N+]([O-])c1cc(C2CCCCC2)c(O)c([N+](=O)[O-])c1`
class 1

Try the compound `CCC1(CO)COCOC1`
class 0

# repeat for CCCCC(CC)CN (configuration not stated)
class 0
